All figures here come from patent US8648208B2.

Target: hPPARγ (LBD) (Homo sapiens, UniProt P37231)
Construct: A receptor expression plasmid (pSG5-GAL4-hPPARα or γ or δ (LBD)); GAL4 (fusion partner)
Sequence (P37231 238-503 limits assumed): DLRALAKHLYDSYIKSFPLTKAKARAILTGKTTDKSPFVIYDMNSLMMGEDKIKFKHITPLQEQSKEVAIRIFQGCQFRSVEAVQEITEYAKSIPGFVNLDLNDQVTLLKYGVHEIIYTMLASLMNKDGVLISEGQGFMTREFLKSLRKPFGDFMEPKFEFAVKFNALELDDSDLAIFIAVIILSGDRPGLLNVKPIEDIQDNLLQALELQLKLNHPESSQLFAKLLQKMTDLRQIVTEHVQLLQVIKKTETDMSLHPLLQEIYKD
Assay: PPAR activating effect, GAL4-hPPARγ LBD luciferase reporter transfection in CV-1 cells
Settings: Table 25; CV-1 cells; method of Example 29; read-out: PPAR activity (EC50) γ
Quick reference: EC50 of the listed items.

smilesCode	EC50
Cc1cc2c(CCc3sc4cc(C(F)(F)F)ccc4c3C(C)C)noc2cc1CCC(=O)O	> 10 µM
Cc1cc2c(CCc3sc4cc(C(F)(F)F)ccc4c3C(C)C)noc2cc1OCC(=O)O	> 10 µM

----------
biological target: hPPARδ (LBD) (Homo sapiens); construct: A receptor expression plasmid (pSG5-GAL4-hPPARα or γ or δ (LBD)); GAL4 (fusion partner); assay: PPAR activating effect, GAL4-hPPARδ LBD luciferase reporter transfection in CV-1 cells; conditions: Table 25; CV-1 cells; method of Example 29; read-out: PPAR activity (EC50) δ
pEC50: −log10 of the molar value.
readoutKind: pEC50

compound	numericReadout
Cc1cc2c(CCc3sc4cc(C(F)(F)F)ccc4c3C(C)C)noc2cc1CCC(=O)O [Example 21]	8.89
Cc1cc2c(CCc3sc4cc(C(F)(F)F)ccc4c3C(C)C)noc2cc1OCC(=O)O [Example 19]	8.32

----------
biological target: hPPARγ (LBD) (Homo sapiens); construct: A receptor expression plasmid (pSG5-GAL4-hPPARα or γ or δ (LBD)); GAL4 (fusion partner); expressed in transfected cells; host or cells: CV-1 cells (ATCC); assay: PPAR activating effect, GAL4-hPPARγ LBD luciferase reporter transfection in CV-1 cells; type: cell-based; conditions: Table 24; 100% = Rosiglitazone 10^-5 M; CV-1 cells, approx. 40 h
readoutKind: PPAR activity γ (relative value to control compound)

compound	experimentalTarget	result
C=C(CCc1sc2cc(C(F)(F)F)ccc2c1C(C)C)c1ccc(CCC(=O)O)c(C)c1 [Example 14]	hPPARγ (LBD) (Homo sapiens)	Inactive
Cc1cc(C(CCc2sc3cc(C(F)(F)F)ccc3c2C(C)C)=NO)ccc1CCC(=O)O [Example 13]	hPPARγ (LBD) (Homo sapiens)	Inactive
CCCc1c(CCC(=O)c2ccc(CCC(=O)O)c(C)c2)sc2cc(C(F)(F)F)ccc12 [Example 9]	hPPARγ (LBD) (Homo sapiens)	1.3%
Cc1cc2c(CCc3sc4cc(C(F)(F)F)ccc4c3C(C)C)noc2cc1N(C)CC(=O)O [Example 20]	hPPARγ (LBD) (Homo sapiens)	Inactive
Cc1cc(C(=O)CCc2sc3cc(C(F)(F)F)ccc3c2C)ccc1CCC(=O)O [Example 7]	hPPARγ (LBD) (Homo sapiens)	Inactive
Cc1cc2c(CCc3sc4cc(C(F)(F)F)ccc4c3C(C)C)noc2cc1CCC(=O)O [Example 21]	hPPARγ (LBD) (Homo sapiens)	Inactive
Cc1cc(C(=O)CCc2sc3cc(C(F)(F)F)ccc3c2CC(C)C)ccc1CCC(=O)O [Example 11]	hPPARγ (LBD) (Homo sapiens)	Inactive
CON=C(CCc1sc2cc(C(F)(F)F)ccc2c1C(C)C)c1ccc(OCC(=O)O)c(C)c1 [Example 17]	hPPARγ (LBD) (Homo sapiens)	Inactive

----------
Quick reference: activation of the listed items.
Target: hPPARδ (LBD) (Homo sapiens, UniProt Q03181)
Construct: A receptor expression plasmid (pSG5-GAL4-hPPARα or γ or δ (LBD)); GAL4 (fusion partner); expressed in transfected cells; host or cells: CV-1 cells (ATCC)
Sequence (Q03181 211-439 limits assumed): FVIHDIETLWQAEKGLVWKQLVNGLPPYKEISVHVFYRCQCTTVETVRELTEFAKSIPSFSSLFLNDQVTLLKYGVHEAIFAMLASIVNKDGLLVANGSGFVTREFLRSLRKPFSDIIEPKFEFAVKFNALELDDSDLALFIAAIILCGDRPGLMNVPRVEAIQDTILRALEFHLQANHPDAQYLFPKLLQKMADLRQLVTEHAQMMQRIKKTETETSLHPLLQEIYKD
Test: PPAR activating effect, GAL4-hPPARδ LBD luciferase reporter transfection in CV-1 cells
Format: cell-based
Design: dose or concentration left out as unconfirmed
Conditions: CV-1, 40 h; read-out: PPAR activity δ (relative value to control compound)

smilesCode	experimentalTarget	unitsOfMeasure	activation
CCCCc1c(CCC(=O)c2ccc(CCC(=O)O)c(C)c2)sc2cc(C(F)(F)F)ccc12	hPPARδ (LBD) (Homo sapiens, UniProt Q03181)	%	66.1
Cc1cc(C(=O)CCc2sc3ccc(C(F)(F)F)cc3c2C)ccc1OCC(=O)O	hPPARδ (LBD) (Homo sapiens, UniProt Q03181)	%	4.4
Cc1cc(C(=O)CCc2sc3cc(C(F)(F)F)ccc3c2C(C)C)ccc1CCC(=O)O	hPPARδ (LBD) (Homo sapiens, UniProt Q03181)	%	87.3
Cc1cc(C(=O)CCc2sc3cc(C(F)(F)F)ccc3c2C)ccc1CCC(=O)O	hPPARδ (LBD) (Homo sapiens, UniProt Q03181)	%	51.4
Cc1cc(C(CCc2sc3cc(C(F)(F)F)ccc3c2C(C)C)=NO)ccc1CCC(=O)O	hPPARδ (LBD) (Homo sapiens, UniProt Q03181)	%	90.4
Cc1cc2c(CCc3sc4cc(C(F)(F)F)ccc4c3C(C)C)noc2cc1N(C)CC(=O)O	hPPARδ (LBD) (Homo sapiens, UniProt Q03181)	%	88
CCCc1c(CCC(=O)c2ccc(CCC(=O)O)c(C)c2)sc2cc(C(F)(F)F)ccc12	hPPARδ (LBD) (Homo sapiens, UniProt Q03181)	%	83.5
Cc1cc2c(CCc3sc4cc(C(F)(F)F)ccc4c3C(C)C)noc2cc1OCC(=O)O	hPPARδ (LBD) (Homo sapiens, UniProt Q03181)	%	91.7
CCc1c(CCC(=O)c2ccc(CCC(=O)O)c(C)c2)sc2cc(C(F)(F)F)ccc12	hPPARδ (LBD) (Homo sapiens, UniProt Q03181)	%	81
Cc1cc(C(=O)CCc2sc3cc(C(F)(F)F)ccc3c2C(C)C)ccc1OCC(=O)O	hPPARδ (LBD) (Homo sapiens, UniProt Q03181)	%	77.4
Cc1cc(C(=O)CCc2sc3cc(C(F)(F)F)ccc3c2CC(C)C)ccc1CCC(=O)O	hPPARδ (LBD) (Homo sapiens, UniProt Q03181)	%	60.9
Cc1cc(C(CCc2sc3cc(C(F)(F)F)ccc3c2C(C)C)=NO)ccc1OCC(=O)O	hPPARδ (LBD) (Homo sapiens, UniProt Q03181)	%	51.7
Cc1cc2c(CCc3sc4cc(C(F)(F)F)ccc4c3C(C)C)noc2cc1CCC(=O)O	hPPARδ (LBD) (Homo sapiens, UniProt Q03181)	%	94.2
C=C(CCc1sc2cc(C(F)(F)F)ccc2c1C(C)C)c1ccc(CCC(=O)O)c(C)c1	hPPARδ (LBD) (Homo sapiens, UniProt Q03181)	%	73
Cc1cc(C(=O)CCc2sc3cc(C(F)(F)F)ccc3c2C)ccc1OCC(=O)O	hPPARδ (LBD) (Homo sapiens, UniProt Q03181)	%	23
Cc1cc(C(=O)CCc2sc3ccc(C(F)(F)F)cc3c2C)ccc1OC(C)(C)C(=O)O	hPPARδ (LBD) (Homo sapiens, UniProt Q03181)	%	19.2
CON=C(CCc1sc2cc(C(F)(F)F)ccc2c1C(C)C)c1ccc(OCC(=O)O)c(C)c1	hPPARδ (LBD) (Homo sapiens, UniProt Q03181)	%	45.9

----------
biological target: hPPARγ (LBD) (Homo sapiens); construct: A receptor expression plasmid (pSG5-GAL4-hPPARα or γ or δ (LBD)); GAL4 (fusion partner); expressed in transfected cells; host or cells: CV-1 cells (ATCC); experiment: PPAR activating effect, GAL4-hPPARγ LBD luciferase reporter transfection in CV-1 cells; format: cell-based; conditions: Table 24; 100% = Rosiglitazone 10^-5 M; CV-1 cells, approx. 40 h
readoutKind: PPAR activity γ (relative value to control compound)

compound	result
Cc1cc(C(=O)CCc2sc3cc(C(F)(F)F)ccc3c2C)ccc1OCC(=O)O [Example 5]	Inactive
Cc1cc(C(=O)CCc2sc3cc(C(F)(F)F)ccc3c2C(C)C)ccc1OCC(=O)O [Example 15]	Inactive
Cc1cc2c(CCc3sc4cc(C(F)(F)F)ccc4c3C(C)C)noc2cc1OCC(=O)O [Example 19]	Inactive
Cc1cc(C(=O)CCc2sc3ccc(C(F)(F)F)cc3c2C)ccc1OC(C)(C)C(=O)O [Example 4]	9.0%
CCCCc1c(CCC(=O)c2ccc(CCC(=O)O)c(C)c2)sc2cc(C(F)(F)F)ccc12 [Example 10]	2.2%
Cc1cc(C(=O)CCc2sc3ccc(C(F)(F)F)cc3c2C)ccc1OCC(=O)O [Example 3]	Inactive
Cc1cc(C(=O)CCc2sc3cc(C(F)(F)F)ccc3c2C(C)C)ccc1CCC(=O)O [Example 12]	Inactive
CCc1c(CCC(=O)c2ccc(CCC(=O)O)c(C)c2)sc2cc(C(F)(F)F)ccc12 [Example 8]	Inactive
Cc1cc(C(CCc2sc3cc(C(F)(F)F)ccc3c2C(C)C)=NO)ccc1OCC(=O)O [Example 16]	Inactive
